# ASSAYED SYSTEM: HLA-B*58:01
# ASSAY INFO: IEDB peptide-MHC binding, purified MHC/competitive/fluorescence; filed as Kd, often an IC50 or EC50 that approximates it; bounds were set here for any values at or beyond the usual limits of such assays
# MEASUREMENT CONTEXT: source organism: human gammaherpesvirus 4
MEASUREMENT KIND: Kd (µM)
Lab book: enter the figure in µM, no units written.

Given item ATVKGMQSY , the value recorded as its Kd is 4.38

* * *

# ASSAYED SYSTEM: HLA-C*03:03
# ASSAY INFO: IEDB peptide-MHC binding, purified MHC/direct/fluorescence; filed as Kd, often an IC50 or EC50 that approximates it; bounds were set here for any values at or beyond the usual limits of such assays
# MEASUREMENT CONTEXT: source organism: Homo sapiens
MEASUREMENT KIND: Kd (nM)
All answers are understood in nM, so give the number only.

// sample YMNGTMSQV , its Kd was 371

* * *

# ASSAYED SYSTEM: HLA-A*30:02
# ASSAY INFO: IEDB peptide-MHC binding, purified MHC/competitive/radioactivity; filed as Kd, often an IC50 or EC50 that approximates it; bounds were set here for any values at or beyond the usual limits of such assays
# MEASUREMENT CONTEXT: source organism: Dengue virus 1 Singapore/S275/1990
MEASUREMENT KIND: pKd
As a rule, pKd stands for the negative log10 of the concentration, concentration in M.

Kindly note: HLA-A*30:02, RFKGEDGCWY , pKd value reported: 8.09

* * *

# ASSAYED SYSTEM: HLA-C*06:02
# ASSAY INFO: IEDB peptide-MHC binding, purified MHC/direct/fluorescence; filed as Kd, often an IC50 or EC50 that approximates it; bounds were set here for any values at or beyond the usual limits of such assays
# MEASUREMENT CONTEXT: source organism: human gammaherpesvirus 4
MEASUREMENT KIND: Kd

Kd recorded for this sequence, RRRKGWIPL , is ≥ 20 µM

* * *

# ASSAYED SYSTEM: HLA-B*15:17
# ASSAY INFO: IEDB peptide-MHC binding, purified MHC/direct/fluorescence; filed as Kd, often an IC50 or EC50 that approximates it; bounds were set here for any values at or beyond the usual limits of such assays
# MEASUREMENT CONTEXT: source organism: Mycobacterium tuberculosis
pKd: −log10 of the molar value.
What pKd was measured for each of the following?

Sample IPAPGLGAL ; pKd observed: ≤ 4.70

Recorded pKd (sequence AVFDSFVER ): ≤ 4.70

Record VPRDRNGTF , field pKd: ≤ 4.70

Entry RGRIGRTYL ; pKd = 7.16

* * *

# ASSAYED SYSTEM: HLA-B*07:02
# ASSAY INFO: IEDB peptide-MHC binding, purified MHC/competitive/radioactivity; filed as Kd, often an IC50 or EC50 that approximates it; bounds were set here for any values at or beyond the usual limits of such assays
# MEASUREMENT CONTEXT: source organism: Mammarenavirus guanaritoense
MEASUREMENT KIND: pKd
Units for pKd: none; it is -log10 of a concentration expressed in mol/L.

Note to self: pKd recorded for CPMCCSKIL was 7.66

* * *

# ASSAYED SYSTEM: HLA-B*45:06
# ASSAY INFO: IEDB peptide-MHC binding, purified MHC/competitive/fluorescence; filed as Kd, often an IC50 or EC50 that approximates it; bounds were set here for any values at or beyond the usual limits of such assays
# MEASUREMENT CONTEXT: source organism: Yersinia pestis Nepal516
pKd: −log10 of the molar value.
MEASUREMENT KIND: pKd

Reported pKd of YSLMSRYQF : ≤ 5.30
